Tested on: Human MPZ
Sequence (P25189 30-153 limits assumed): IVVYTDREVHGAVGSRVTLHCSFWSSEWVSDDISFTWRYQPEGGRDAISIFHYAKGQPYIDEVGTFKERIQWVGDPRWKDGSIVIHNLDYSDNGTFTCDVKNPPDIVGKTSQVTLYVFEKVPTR
Test: Phage display library screening (Example 2, Python script analysis), binding to Human MPZ
Conditions: combined unique sequence count, Python/R script analysis
Label rule, in plain words: Count of 40 and up is 1.0, under 40 is 0.0.

Substance	Answer label
DPITRLK (R3 Human MPZ-binding peptide)	1.0
SAHAKHH (R3 Human MPZ-binding peptide)	1.0
ALPISYL (Human MPZ-binding peptide)	1.0
GPLRMAT (R3 Human MPZ-binding peptide)	1.0
CYSSVADMC (Human MPZ-binding peptide)	1.0
HPFPRFD (Human MPZ-binding peptide)	1.0
TMASPAK (R3 Human MPZ-binding peptide)	1.0
IEQVGWR (Human MPZ-binding peptide)	0.0
GPVVSGM (Human MPZ-binding peptide)	1.0
AMSNLSY (Human MPZ-binding peptide)	1.0
NPISPRN (Human MPZ-binding peptide)	0.0
FMSDVDH (Human MPZ-binding peptide)	0.0
TTLVVTA (Human MPZ-binding peptide)	1.0
LVLQTTP (Human MPZ-binding peptide)	0.0
ISSVTVV (Human MPZ-binding peptide)	0.0
WMTNLDP (Human MPZ-binding peptide)	1.0
ETTRNYG (R3 Human MPZ-binding peptide)	1.0
SVAYVPV (Human MPZ-binding peptide)	1.0
VLTKPMP (R3 Human MPZ-binding peptide)	1.0
CIKGEDNQC (Human MPZ-binding peptide)	0.0

---

Tested on: Human MPZ
Assay: Phage display library screening (Example 2, Python script analysis), binding to Human MPZ
Details: combined unique sequence count, Python/R script analysis
Description: Phage display library screens were used to identify peptides that bind to target proteins (including specific laminin trimers) that are expressed in human nerves, as described in Table 3. These screens were also carried out to identify peptides that could bind selectively to nerves versus muscle. Such peptides could therefore be useful for systemic in-vivo labeling of nerves during fluorescence assisted surgery. […]
Assay readout: Count

Substance	Assay readout	Reported
SPNTNSH (Human MPZ-binding peptide)	Count	40
ALPLSAS (R3 Human MPZ-binding peptide)	Count	197
DRYLLNQ (Human MPZ-binding peptide)	Count	40
LVNPFPE (Human MPZ-binding peptide)	Count	39
LSPPRIM (Human MPZ-binding peptide)	Count	43
NTASMTT (Human MPZ-binding peptide)	Count	38
WPSISRP (R3 Human MPZ-binding peptide)	Count	58
LISPTAR (Human MPZ-binding peptide)	Count	37
GGSKVWG (Human MPZ-binding peptide)	Count	40
CERIGPREC (Human MPZ-binding peptide)	Count	39
SYLPPFI (Human MPZ-binding peptide)	Count	41
KLPTLSV (Human MPZ-binding peptide)	Count	44
KTPILAS (Human MPZ-binding peptide)	Count	38
VPLAYLR (Human MPZ-binding peptide)	Count	40

---

Target: Human MPZ (human) (UniProt P25189)
Sequence (P25189 30-153 limits assumed): as above
Assay: phage display R3, NGS count
Assay readout: Count

Substance	Reported
ALPLSAS (peptide)	196
VLTKPMP (peptide)	56
DPITRLK (peptide)	92
TESLFPH (peptide)	50
IKPPYTH (peptide)	78
GPLRMAT (peptide)	50
RVPHSRT (peptide)	49
SAHAKHH (peptide)	51
DRNSVFW (peptide)	50
VLKNNPT (peptide)	86

---

Target: Human Myelin Basic Protein (Homo sapiens)
Sequence (P02686 134-304): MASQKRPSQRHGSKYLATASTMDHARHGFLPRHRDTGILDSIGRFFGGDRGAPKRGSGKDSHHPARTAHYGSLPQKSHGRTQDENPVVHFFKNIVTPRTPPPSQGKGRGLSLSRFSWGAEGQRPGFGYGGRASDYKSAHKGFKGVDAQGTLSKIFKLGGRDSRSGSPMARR
Test: Phage display library screening (Example 2, Python script analysis), binding to Human Myelin Basic Protein
Parameters: Enzo 200-606-M001 from human; purchased Enzo 200-606-M001; host or cells: human brain (tissue-derived)
Conditions: R3 Myelin Basic Protein; combined unique sequence count, Python/R script analysis
Entries annotated with measured Count
Assay readout: Count

Substance	Reported
QNSYLSN (R3 Myelin Basic Protein-binding peptide)	8
LFRRVTE (R3 Myelin Basic Protein-binding peptide)	7
LITHPQL (R3 Myelin Basic Protein-binding peptide)	6
GSPYGWG (R3 Myelin Basic Protein-binding peptide)	6
TGSVSKQ (R3 Myelin Basic Protein-binding peptide)	6
LELHQNV (R3 Myelin Basic Protein-binding peptide)	6
RSRKHRP (R3 Myelin Basic Protein-binding peptide)	6
DSQEKSV (R3 Myelin Basic Protein-binding peptide)	6
SYRSMAP (R3 Myelin Basic Protein-binding peptide)	6
VVDMSTY (R3 Myelin Basic Protein-binding peptide)	7
WPDLRIL (R3 Myelin Basic Protein-binding peptide)	7
HFLRPSD (R3 Myelin Basic Protein-binding peptide)	7
SLWQTLR (R3 Myelin Basic Protein-binding peptide)	6
NFAQHMQ (R3 Myelin Basic Protein-binding peptide)	9
TPVRLNT (R3 Myelin Basic Protein-binding peptide)	6
TRIPILL (R3 Myelin Basic Protein-binding peptide)	6
YLPPPLP (R3 Myelin Basic Protein-binding peptide)	7
QPIDSTS (R3 Myelin Basic Protein-binding peptide)	7
HRTHLHQ (R3 Myelin Basic Protein-binding peptide)	6
RTTDWWT (R3 Myelin Basic Protein-binding peptide)	6
IILPSAQ (R3 Myelin Basic Protein-binding peptide)	8
DVVKDVI (R3 Myelin Basic Protein-binding peptide)	7
AWSTSSV (R3 Myelin Basic Protein-binding peptide)	12
CPRMNNPLC (R3 Myelin Basic Protein-binding peptide)	7
YPYVPIY (R3 Myelin Basic Protein-binding peptide)	6
AVRQTTM (R3 Myelin Basic Protein-binding peptide)	7
HSGPLLP (R3 Myelin Basic Protein-binding peptide)	6
MTNHGNA (R3 Myelin Basic Protein-binding peptide)	7
KVHHLAR (R3 Myelin Basic Protein-binding peptide)	6
KIITTKS (R3 Myelin Basic Protein-binding peptide)	6
ANLSRSV (R3 Myelin Basic Protein-binding peptide)	9
SIQTSAM (R3 Myelin Basic Protein-binding peptide)	6
FQLSYET (R3 Myelin Basic Protein-binding peptide)	6
THKHMMT (R3 Myelin Basic Protein-binding peptide)	6
MQRLGAD (R3 Myelin Basic Protein-binding peptide)	6
SRHLPPL (R3 Myelin Basic Protein-binding peptide)	6
YVNRVKQ (R3 Myelin Basic Protein-binding peptide)	6
QKALPQT (R3 Myelin Basic Protein-binding peptide)	6
NLLQGVM (R3 Myelin Basic Protein-binding peptide)	7
ESKSPRE (R3 Myelin Basic Protein-binding peptide)	6
TPQVMLK (R3 Myelin Basic Protein-binding peptide)	8
